- Test system: SMN2-linked luciferase-reporter gene construct
- Protocol Summary: SMN Splice Reporter Assay (SMN2-linked luciferase reporter)
- Assay type: cell-based
- Test Settings: fold-increase of luciferase over baseline reading of transformed cells without any test compound
So I've got a bunch of compounds here, and I need their Fold Increase values.
// keep it numeric: no unit symbol after the value

May I ask what Fold Increase has been recorded for COCCn1ccc2ccc(N3Cc4ccc(OC)cc4C3=O)cc21 ?
1.19

May I ask what Fold Increase has been recorded for CN(C)c1ccc2c(c1)C(=O)N(c1ccc3ccsc3c1)C2 ?
1.592

May I ask what Fold Increase has been recorded for COCCn1ccc2cc(N3Cc4ccc(OC)cc4C3=O)ccc21 ?
1.405

May I ask what Fold Increase has been recorded for CCCOc1ccc2c(c1)C(=O)N(c1ccc3c(ccn3C)c1)C2 ?
1.29

May I ask what Fold Increase has been recorded for COc1ccc2c(c1)C(=O)N(c1ccc3ccn(CCN)c3c1)C2 ?
1.163

May I ask what Fold Increase has been recorded for CCc1ccc2c(c1)C(=O)N(c1ccc3c(c1)cc(C)n3C)C2 ?
1.481

May I ask what Fold Increase has been recorded for Cn1ccc2cc(N3Cc4c(Br)cccc4C3=O)ccc21 ?
1.39

May I ask what Fold Increase has been recorded for COc1ccc2c(c1)C(=O)N(c1ccc3scc(Br)c3c1)C2 ?
1.718

May I ask what Fold Increase has been recorded for COc1cc2c(cc1OC)C(=O)N(c1ccc3c(ccn3C)c1)C2 ?
1.427

May I ask what Fold Increase has been recorded for O=C1c2cc(O)ccc2CN1c1ccc2ccsc2c1 ?
1.671

May I ask what Fold Increase has been recorded for COc1ccc2c(c1)C(=O)N(c1ccc3nc(Cl)ccc3c1)C2 ?
1.531

May I ask what Fold Increase has been recorded for CN1CCN(c2ccc3c(c2)C(=O)N(c2ccc4c(ccn4C)c2)C3)CC1 ?
1.183

May I ask what Fold Increase has been recorded for COc1ccc2c(c1)C(=O)N(c1ccc3c(c1)OC(C)(C)O3)C2 ?
1.308

May I ask what Fold Increase has been recorded for COc1ccc2c(c1)C(=O)N(c1ccc3c(c1)CCC3)C2 ?
1.512

May I ask what Fold Increase has been recorded for COc1ccc2c(c1)C(=O)N(c1ccc3cc(C)[nH]c3c1)C2 ?
1.347

May I ask what Fold Increase has been recorded for CC(=O)Nc1ccc2c(c1)CN(c1ccc3ccn(C)c3c1)C2=O ?
1.488

May I ask what Fold Increase has been recorded for Cc1cc2ccc(N3Cc4ccc(Cl)cc4C3=O)cc2n1C ?
1.268

May I ask what Fold Increase has been recorded for CC(C)C(=O)Nc1ccc2c(c1)C(=O)N(c1ccc3c(ccn3C)c1)C2 [Example 124864] ?
1.519

May I ask what Fold Increase has been recorded for COc1ccc2c(c1)C(=O)N(c1ccc3c(c1)c(C)c(C)n3C)C2 ?
1.434

* * *

So I've got a bunch of molecules here, and I need their Fold Increase values.
- Test system: SMN2-linked luciferase-reporter gene construct
- Protocol Summary: SMN Splice Reporter Assay (SMN2-linked luciferase reporter)
- Assay type: cell-based
- Test Settings: fold-increase of luciferase over baseline reading of transformed cells without any test compound

May I ask what Fold Increase has been recorded for Cc1cc2cc(N3Cc4ccc(N5CCCC5)cc4C3=O)ccc2n1C ?
1.113

May I ask what Fold Increase has been recorded for Cn1ccc2ccc(N3Cc4ccc(-c5ccccc5)cc4C3=O)cc21 ?
1.816

May I ask what Fold Increase has been recorded for COc1ccc2c(c1)C(=O)N(c1ccc3ncncc3c1)C2 ?
1.448

May I ask what Fold Increase has been recorded for Cn1ccc2cc(N3Cc4cccc(Br)c4C3=O)ccc21 ?
1.527

May I ask what Fold Increase has been recorded for COc1ccc2c(c1)C(=O)N(c1ccc3cc(C)n(C)c3c1)C2 ?
1.358
